# assayComment: Pharmacokinetic study in mice: plasma clearance of 125I-labeled protein, SEC of plasma
# Format: in vivo
# recordedConditions: tail vein injection, bi-exponential fit
Entries and their measured β Phase Clearance (%) follow.
experimentalReadout: β Phase Clearance (%)

INSERT INTO measurements (substance, value) VALUES
  ('PEG20-DX-890-7.4: DX-890 conjugated to a 20 kDa PEG moiety (MPEG-SPA20K, conjugated at pH 7.4), mono-PEGylated (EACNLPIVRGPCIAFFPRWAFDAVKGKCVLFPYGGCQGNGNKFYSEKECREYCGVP)', '42%'),
  ('PEG20-DX-890-6.0: DX-890 conjugated to a 20 kDa PEG moiety (MPEG-SPA20K, conjugated at pH 6), mono-PEGylated (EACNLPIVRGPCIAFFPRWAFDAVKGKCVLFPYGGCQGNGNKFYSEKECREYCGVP)', '47%'),
  ('PEG30-DX-890-6.0: DX-890 conjugated to a 30 kDa PEG moiety (MPEG-SPA30K, conjugated at pH 6), mono-PEGylated (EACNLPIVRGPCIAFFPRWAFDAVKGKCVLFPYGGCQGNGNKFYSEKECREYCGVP)', '67%'),
  ('DX-890: 56 amino acid Kunitz domain polypeptide derived from ITI-D2, inhibitor of human neutrophil elastase, produced in Pichia pastoris (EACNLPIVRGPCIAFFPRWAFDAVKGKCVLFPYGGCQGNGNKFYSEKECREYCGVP)', '16%');
